Origin of measurements: patent US20250312499A1

target: human kisspeptin receptor (KISS1R) (human), Q969F8; test: radioligand competition, hKISS1R membranes; legend: A is <10 nM
Sequence (Q969F8 whole entry): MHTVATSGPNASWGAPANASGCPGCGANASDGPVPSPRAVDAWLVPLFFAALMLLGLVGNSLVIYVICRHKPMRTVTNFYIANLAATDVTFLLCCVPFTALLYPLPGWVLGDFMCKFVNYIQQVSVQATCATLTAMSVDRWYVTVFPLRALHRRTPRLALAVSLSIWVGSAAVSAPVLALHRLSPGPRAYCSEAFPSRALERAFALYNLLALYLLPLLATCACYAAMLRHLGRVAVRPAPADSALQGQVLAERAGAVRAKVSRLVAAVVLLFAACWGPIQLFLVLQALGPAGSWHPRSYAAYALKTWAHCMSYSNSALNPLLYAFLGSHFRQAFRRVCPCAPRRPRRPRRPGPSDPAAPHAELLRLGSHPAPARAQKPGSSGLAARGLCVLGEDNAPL
Numbered stars: 1 amine (or outer) side, 2 acyl side, 3 side chain; on linkers, the order of the positions; unused ones are H or OH. Square brackets hold non-standard residues; d marks the D form. * marks the point of attachment. X2 = 4‑amino‑1‑((3-fluoro-4-methylbenzyl)glycyl)piperidine‑4‑carboxylic acid, Cc1ccc(CN(CC(=O)N2CCC(N[*:1])(C(=O)[*:2])CC2)[*:3])cc1F; DOTA = O=C(O)CN1CCN(CC(=O)O)CCN(CC(=O)*)CCN(CC(=O)O)CC1; Ahx = NCCCCCC(=O)O; azaGly = NNC(=O)O
measured.parameter: Ki

Q. Would you mind telling me what Ki value was observed for {DOTA-Ahx}-[dY][dW]NTF[azaGly]L[X2]W-NH2 (SMILES Cc1ccc(CNCC(=O)N2CCC(NC(=O)[C@H](CC(C)C)NC(=O)NNC(=O)[C@H](Cc3ccccc3)NC(=O)[C@@H](NC(=O)[C@H](CC(N)=O)NC(=O)[C@@H](Cc3c[nH]c4ccccc34)NC(=O)[C@@H](Cc3ccc(O)cc3)NC(=O)CCCCCNC(=O)CN3CCN(CC(=O)O)CCN(CC(=O)O)CCN(CC(=O)O)CC3)[C@@H](C)O)(C(=O)N[C@@H](Cc3c[nH]c4ccccc34)C(N)=O)CC2)cc1F) [Compound 1] ?
A. < 10 nM
